Catalogue of EC50 values
- Assayed System: human B7-H3 expressed on A375 tumor cells (human) (UniProt Q5ZPR3)
- Test Summary: flow cytometry on A375 cells, MFI(PE); unit from the axis Conc (nM)
Answer format: numeric, pM implied, no suffix.

Please review the following examples before continuing.
72D1D11-z3 (antibody, V domains shown) VH: QVQLVQSGSELKKPGASVKVSCKASGYTFTNLGLNWVRQAPGQGLEWMGWINTAGGQPTYAEDFKGRFVFSLDTSVSTAYLQISSLKAEDTAVYYCARDDGYYYTMDYWGQGTTVTVSS VL: DIVMTQSPLSLPVTPGEPASISCRSSQSLVHSNGKTYLHWYLQKPGQSPQLLIYKVSNRFSGVPDRFSGSGSGTDFTLKISRVEAEDVGVYYCSQSTHVPWTFGGGTKLEIK	580
72D1D11-z5 (antibody, V domains shown) VH: QVQLVQSGSELKKPGASVKVSCKASGYTFTNLGLNWVRQAPGQGLEWMGWINTAGGQPTYAEDFKGRCVFSLDTSVSTAYLQISSLKAEDTAVYYCARDDGYYYTMDYWGQGTTVTVSS VL: DIVMTQTPLSLPVTPGEPASISCRSSQSLVHSNGKTYLHWYLQKPGQSPQLLIYKVSNRFSGVPDRFSGSGSGTDFTLKISRVEAEDVGVYYCSQSTHVPWTFGGGTKLEIK	510
72D1D11-z2 (antibody, V domains shown) VH: QVQLVQSGSELKKPGASVKVSCKASGYTFTNLGLNWVRQAPGQGLEWMGWINTAGGQPTYAEDFKGRFVFSLDTSVSTAYLQISSLKAEDTAVYYCARDDGYYYTMDYWGQGTTVTVSS VL: DIVMTQTPLSLPVTPGEPASISCRSSQSLVHSNGKTYLHWYLQKPGQSPQLLIYKVSNRFSGVPDRFSGSGSGTDFTLKISRVEAEDVGVYFCSQSTHVPWTFGGGTKLEIK	520
72D1D11-z1 (antibody, V domains shown) VH: QVQLVQSGSELKKPGASVKVSCKASGYTFTNLGLNWVRQAPGQGLEWMGWINTAGGQPTYAEDFKGRFVFSLDTSVSTAYLQISSLKAEDTAVYYCARDDGYYYTMDYWGQGTTVTVSS VL: DIVMTQTPLSLPVTPGEPASISCRSSQSLVHSNGKTYLHWYLQKPGQSPQLLIYKVSNRFSGVPDRFSGSGSGTDFTLKISRVEAEDVGVYYCSQSTHVPWTFGGGTKLEIK	630

Here's the next entry for you.
q: Which value of EC50 has been reported for 72D1D11-z4 (antibody, V domains shown) VH: QVQLVQSGSELKKPGASVKVSCKASGYTFTNLGLNWVRQAPGQGLEWMGWINTAGGQPTYAEDFKGRFVFSLDTSVSTAYLQISSLKAEDTAVYYCARDDGYYYTMDYWGQGTTVTVSS VL: DIVMTQSPLSLPVTPGEPASISCRSSQSLVHSNGKTYLHWYLQKPGQSPQLLIYKVSNRFSGVPDRFSGSGSGTDFTLKISRVEAEDVGVYFCSQSTHVPWTFGGGTKLEIK in the records?
a: 490
